Tested system: Mitogen-activated protein kinase 10 (Homo sapiens, UniProt P53779)
Sequence (P53779 whole entry): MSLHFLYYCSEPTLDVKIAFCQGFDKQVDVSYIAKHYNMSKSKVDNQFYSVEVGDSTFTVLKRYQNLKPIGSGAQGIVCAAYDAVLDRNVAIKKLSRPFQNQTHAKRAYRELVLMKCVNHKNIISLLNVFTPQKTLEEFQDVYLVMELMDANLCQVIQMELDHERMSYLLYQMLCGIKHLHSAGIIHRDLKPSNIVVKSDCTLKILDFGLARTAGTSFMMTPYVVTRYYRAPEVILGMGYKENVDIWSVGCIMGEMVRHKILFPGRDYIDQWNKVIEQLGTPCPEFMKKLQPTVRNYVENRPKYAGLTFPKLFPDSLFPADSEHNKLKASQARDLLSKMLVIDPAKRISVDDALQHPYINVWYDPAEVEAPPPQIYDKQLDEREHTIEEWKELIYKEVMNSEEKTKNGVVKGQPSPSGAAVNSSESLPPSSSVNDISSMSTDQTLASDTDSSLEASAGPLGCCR
Assay name: Inhibition of JNK3 (unknown origin) using biotinylated ATF2 by HTRF method
pIC50: −log10 of the molar value.
Assay readout: pIC50

Form field pIC50, entry NC(=O)c1ccccc1Nc1nc(Nc2ccc(F)cc2)ncc1Cl : 8.92

Form field pIC50, entry COc1cc(Nc2cc(Nc3ccccc3C(N)=O)ccn2)ccc1N1CCOCC1 : 6.88

Form field pIC50, entry NC(=O)c1ccccc1Nc1nc(Nc2ccc(N3CCOCC3)cc2)ncc1Cl : 9.55

Form field pIC50, entry CNC(=O)c1ccccc1Nc1cc(Nc2ccc(N3CCOCC3)cc2OC)ncc1Br : 7.17

Form field pIC50, entry CNC(=O)c1ccccc1Nc1cc(Nc2ccc(N3CCOCC3)cc2OC)ncc1C#N : 6.29

P. NC(=O)c1ccccc1Nc1nc(Nc2ccc(N3CCOCC3)c(F)c2)ncc1Cl
Q. NC(=O)c1ccccc1Nc1nc(Nc2ccc(Cl)cc2)ncc1Cl
R. NC(=O)c1ccccc1Nc1ccnc(Nc2ccc(N3CCOCC3)cc2)c1
List the 3 entries from lowest pIC50 to highest pIC50 value. Answer by listing the labels in the order asked for.
R, Q, P
